Tested on: normal primary NK cells, pool 1 (3 donors) (IL-2 2.5 ng/mL)
Measurement Description: percent inhibition of viability; higher = more inhibition
Recorded Conditions: 72 h; 10 nM
Quantity Name: percent inhibition of viability (%)
Supply the numeric figure in %, leaving out any unit text.

- Compound: "CNNCc1ccc(C(=O)NC(C)C)cc1 [Procarbazine] (max concentration tested 10000 nM)"
  percent inhibition of viability, %: -6.37
- Compound: "Cn1cc(CNCC2CCN(c3ncc(C(=O)NO)cn3)CC2)c2ccccc21 [Quisinostat] (max concentration tested 1000 nM)"
  percent inhibition of viability, %: 58.6
- Compound: "O=c1ncn2nc(Sc3ccc(F)cc3F)ccc2c1-c1c(Cl)cccc1Cl [VX 745] (max concentration tested 10000 nM)"
  percent inhibition of viability, %: 8.88

Task: Item Cc1nc(N)sc1-c1ccnc(Nc2ccc(N3CCOCC3)cc2)n1 [CYC-116] (max concentration tested 10000 nM) has what recorded percent inhibition of viability?
Output: -2.39

----------
The following compounds are listed with their measured percent inhibition of viability values.
Tested on: KHYG-1 (IL-2 2.5 ng/mL)
Measurement Description: percent inhibition of viability; higher = more inhibition
Recorded Conditions: 72 h; 100 nM
Field: numeric (%). Do not append units.

Sample records with percent inhibition of viability:
- Compound: "CC(=O)[C@]1(O)Cc2c(O)c3c(c(O)c2[C@@H](O[C@H]2C[C@H](N)[C@H](O)[C@H](C)O2)C1)C(=O)c1ccccc1C3=O [Idarubicin] (max concentration tested 1000 nM)"
  Measurement Target: "KHYG-1 (IL-2 2.5 ng/mL)"
  U: "%"
  Experimental Value: 108
- Compound: "Cn1nnc2c(C(N)=O)ncn2c1=O [Temozolomide] (max concentration tested 100000 nM)"
  Measurement Target: "KHYG-1 (IL-2 2.5 ng/mL)"
  U: "%"
  Experimental Value: -4.13
- Compound: "CN(C[C@@H]1COCCO1)S(=O)(=O)Nc1ccc2ccc3ncc(-c4cnn(C)c4)cc3c(=O)c2c1 [MK-2461] (max concentration tested 10000 nM)"
  Measurement Target: "KHYG-1 (IL-2 2.5 ng/mL)"
  U: "%"
  Experimental Value: -0.87
- Compound: "CNC(=O)c1cc(Oc2ccc(NC(=O)Nc3ccc(Cl)c(C(F)(F)F)c3)cc2)ccn1 [Sorafenib] (max concentration tested 1000 nM)"
  Measurement Target: "KHYG-1 (IL-2 2.5 ng/mL)"
  U: "%"
  Experimental Value: 2.71
- Compound: "COc1cc2ncnc(Nc3ccc(F)c(Cl)c3)c2cc1NC(=O)/C=C/CN1CCCCC1 [Dacomitinib] (max concentration tested 1000 nM)"
  Measurement Target: "KHYG-1 (IL-2 2.5 ng/mL)"
  U: "%"
  Experimental Value: 5.43
- Compound: "CCN(c1cc(-c2ccc(CN3CCOCC3)cc2)cc(C(=O)NCc2c(C)cc(C)[nH]c2=O)c1C)C1CCOCC1 [E7438] (max concentration tested 10000 nM)"
  Measurement Target: "KHYG-1 (IL-2 2.5 ng/mL)"
  U: "%"
  Experimental Value: 0.98

We next turn to a different compound, shown below.
Task: Any idea what percent inhibition of viability was measured for CCC1=C[C@@H]2CN(C1)Cc1c([nH]c3ccccc13)[C@@](C(=O)OC)(c1cc3c(cc1OC)N(C)[C@H]1[C@@](O)(C(=O)OC)[C@H](OC(C)=O)[C@]4(CC)C=CCN5CC[C@]31[C@@H]54)C2 [Vinorelbine] (max concentration tested 10000 nM) ?
Output: 97.2

----------
Tested on: normal primary NK cells, pool 1 (3 donors) (IL-2 2.5 ng/mL)
Measurement Description: percent inhibition of viability; higher = more inhibition
Recorded Conditions: 72 h; 10 nM
Quantity Name: percent inhibition of viability

See these solved cases before continuing.
- Molecule: "Cc1nc(C(=O)NCC(=O)O)c(O)c2ccc(Oc3ccccc3)cc12 [FG-4592] (max concentration tested 10000 nM)"
  percent inhibition of viability: "1.21%"
- Molecule: "C1=N/C2=N/c3ccc(OCCN4CCCC4)c(c3)COC/C=C/COCc3cccc(c3)C(=C1)N2 [Pacritinib] (max concentration tested 10000 nM)"
  percent inhibition of viability: "-5.07%"

Task: percent inhibition of viability for Cc1cn(-c2cc(NC(=O)c3ccc(C)c(Nc4nccc(-c5cccnc5)n4)c3)cc(C(F)(F)F)c2)cn1 [Nilotinib] (max concentration tested 10000 nM) ?
Output: -14%

Task: Which measured percent inhibition of viability value corresponds to C[C@]12C=CC(=O)C=C1CC[C@@H]1[C@@H]2C(=O)C[C@@]2(C)[C@H]1CC[C@]2(O)C(=O)CO [Prednisone] (max concentration tested 10000 nM) ?
Output: -6.96%

Task: Recorded percent inhibition of viability for CCN(c1cc(-c2ccc(CN3CCOCC3)cc2)cc(C(=O)NCc2c(C)cc(C)[nH]c2=O)c1C)C1CCOCC1 [E7438] (max concentration tested 10000 nM) , please?
Output: -9.28%

Task: Consider the molecule shown here: CCC/C=C/C=C/C(=O)O[C@H]1/C(=C/C(=O)OC)C[C@H]2C[C@H]([C@@H](C)O)OC(=O)C[C@H](O)C[C@@H]3C[C@H](OC(C)=O)C(C)(C)[C@](O)(C[C@@H]4C/C(=C/C(=O)OC)C[C@H](/C=C/C(C)(C)[C@]1(O)O2)O4)O3 [Bryostatin 1] (max concentration tested 100 nM) What is its recorded percent inhibition of viability?
Output: -23.1%

Task: Requested read-out: percent inhibition of viability. Entry: CNCc1ccc(-c2[nH]c3cc(F)cc4c3c2CCNC4=O)cc1 [Rucaparib] (max concentration tested 10000 nM)
Output: 15.4%

Task: So what's the measured percent inhibition of viability for this one? Oc1c2ccccc2c2c3c(cccc13)N=N2 (max concentration tested 100000 nM)
Output: 1.28%

Task: Request the reported percent inhibition of viability associated with COc1ccc(S(=O)(=O)Nc2cccnc2Nc2ccc(O)cc2)cc1 [ABT-751] (max concentration tested 10000 nM)
Output: -12.6%

Task: // lookup percent inhibition of viability for CS(=O)(=O)N1CCc2c(-c3cnc(N)nc3)nc(N3CCOCC3)nc21 (max concentration tested 10000 nM)
Output: -10.5%

Task: Would you kindly share the measured percent inhibition of viability for COc1cc2c(Oc3ccc(NC(=O)C4(C(=O)Nc5ccc(F)cc5)CC4)cc3F)ccnc2cc1OCCCN1CCOCC1 [Foretinib] (max concentration tested 1000 nM) ?
Output: 9.57%

Task: Find the recorded percent inhibition of viability belonging to C[C@@H](Oc1ccc2[nH]nc(/C=C/c3cnn(CCO)c3)c2c1)c1c(Cl)cncc1Cl (max concentration tested 1000 nM) and report it.
Output: 2.43%

Task: Which percent inhibition of viability reading was recorded for the molecule CO[C@@H]1[C@H](N(C)C(=O)c2ccccc2)C[C@H]2O[C@]1(C)n1c3ccccc3c3c4c(c5c6ccccc6n2c5c31)C(=O)NC4 [Midostaurin] (max concentration tested 10000 nM) ?
Output: -12.2%

Task: Which percent inhibition of viability value belongs to CCC1=C[C@@H]2CN(C1)Cc1c([nH]c3ccccc13)[C@@](C(=O)OC)(c1cc3c(cc1OC)N(C)[C@H]1[C@@](O)(C(=O)OC)[C@H](OC(C)=O)[C@]4(CC)C=CCN5CC[C@]31[C@@H]54)C2 [Vinorelbine] (max concentration tested 10000 nM) ?
Output: -2.37%

----------
Here, each record is paired with measured drug sensitivity score data.
Tested on: IMC-1 (IL-2 20 ng/mL)
Measurement Description: drug sensitivity score (DSS) (DSS units); higher = more sensitive; extreme values may be limits of the assay
Recorded Conditions: 72 h
No unit in the answer, please; the number alone is enough.

Use these answered entries as a reference point.
- Compound: "COc1cc2c(Oc3ccc(NC(=O)C4(C(=O)Nc5ccc(F)cc5)CC4)cc3F)ccnc2cc1OCCCN1CCOCC1 [Foretinib] (max concentration tested 1000 nM)"
  drug sensitivity score: 1.64
- Compound: "CO[C@H]1/C=C\\C=C(/C)C(=O)NC2=CC(=O)C(NCCN(C)C)=C(C[C@@H](C)C[C@H](OC)[C@H](O)[C@@H](C)/C=C(\\C)[C@@H]1OC(N)=O)C2=O [Alvespimycin] (max concentration tested 1000 nM)"
  drug sensitivity score: 8.22
- Compound: "COc1ccc(S(=O)(=O)Nc2cccnc2Nc2ccc(O)cc2)cc1 [ABT-751] (max concentration tested 10000 nM)"
  drug sensitivity score: 18.5
- Compound: "C[C@@H](Oc1ccc2[nH]nc(/C=C/c3cnn(CCO)c3)c2c1)c1c(Cl)cncc1Cl (max concentration tested 1000 nM)"
  drug sensitivity score: 8.86
- Compound: "COc1ccc(-c2cc3c(C)nc(N)nc3n([C@H]3CC[C@H](OCCO)CC3)c2=O)cn1 (max concentration tested 10000 nM)"
  drug sensitivity score: 2.72

Task: For the compound shown here, CCCCC/C=C/C=C1/C(=O)C=C[C@@H]1C/C=C\CCCC(=O)O [15D-PGJ2] (max concentration tested 3000 nM) , give the reported drug sensitivity score.
Output: 0
